target or system: canine CD3 on canine T cells (canine PBMC) (canine, UniProt P27597 22-202)
Sequence (P27597 22-202 limits assumed, chain 1 of 3): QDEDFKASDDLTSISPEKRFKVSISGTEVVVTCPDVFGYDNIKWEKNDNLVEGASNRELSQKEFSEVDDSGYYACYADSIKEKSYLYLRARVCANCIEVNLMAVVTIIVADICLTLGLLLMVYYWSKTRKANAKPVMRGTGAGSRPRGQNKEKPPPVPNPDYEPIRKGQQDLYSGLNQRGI
Sequence (chain, as listed by the source limits assumed, chain 2 of 3): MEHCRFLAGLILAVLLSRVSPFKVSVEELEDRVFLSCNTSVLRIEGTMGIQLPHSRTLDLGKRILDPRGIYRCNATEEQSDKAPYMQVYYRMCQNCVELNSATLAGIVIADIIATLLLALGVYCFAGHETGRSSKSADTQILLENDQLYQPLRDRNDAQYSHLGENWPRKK
Sequence (chain, as listed by the source limits assumed, chain 3 of 3): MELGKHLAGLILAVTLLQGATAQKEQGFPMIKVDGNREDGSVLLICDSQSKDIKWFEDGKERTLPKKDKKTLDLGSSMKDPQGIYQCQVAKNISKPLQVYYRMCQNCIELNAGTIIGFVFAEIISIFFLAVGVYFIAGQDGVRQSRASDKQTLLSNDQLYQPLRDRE
assay info: cell-based or functional assay
Would you kindly list Ki67 Proliferation, Day 6, IS for each of these binders?
Numbers only.

// below: answered binders
{"binder": "PMX179 (monospecific anti-canine CD3, canine IgG-B effector function deficient Fc) (antibody, V domains shown) VH: ELALQESGPGLVRPSQTLSLTCVVSGGSVTRSYYWNWIRQRPGRGLEWMGYWTGTTIYNPAFQGRISITVDTAKNQFSLHLISMTTEDTAVYYCGREGGSSLGAIAYWGQGTRVTVSS VL: SYVLTQLPSKNVTLKQPAHITCGGDNIGSKSVHWYQQKLGQAPVLIIYYDSSRPTGIPERFSGANSGNTATLTISGALAEDEADYYCQVWDSSAKAAVFGGGTHLTVL", "Ki67 Proliferation, Day 6, IS": 1.27}
{"binder": "PMX159 (monospecific anti-canine CD3, canine IgG-B effector function deficient Fc) (antibody, V domains shown) VH: ELTLQESGPGLVKPSQTLSLTCVVSGGSVTRSYYWNWIRQRPGRGLEWMGYWTGSTIYNPTFQGRISITADTAKSQFSLQLRSMTTEDTAMYFCAREGGKSLGAFAYWGQGTLVTVSS VL: SYVLTQLPSKNVTLKQPAHITCGGDKIGSKNVHWYQQKLGQAPVMIIYYDSSRPTGIPERFSGANSGNTATLTISGALAEDEADYYCQVWDSSAKAAVFGGGTHLTVL", "Ki67 Proliferation, Day 6, IS": 1.69}

If you can, please state the reported Ki67 Proliferation, Day 6, IS value of PMX192 (monospecific anti-canine CD3, canine IgG-B effector function deficient Fc) (antibody, V domains shown) VH: EVQLVESGGDLVKPAGSLRLSCVASGFTFSDYSMSWVRQAPEKGLQLVAGINGDGSTTYYTDAVKGRFTISRDNAKNTVYLQMNSLRAEDTAMYYCAKGAGTGDFWGQGTLVTVSS VL: SYELTQPPSVNVTLRETAHITCGGASIGRKYVQWIQQIPGQAPVVIIYKDSNRPTGIPERFSGANSGNTATLTISGALAEDEADYYCQVGDSGAWVFGEGTQLTVL .
1.29
